Data provenance: the CheMixHub drug solubility set

Assay: xn = mol fraction of the nth substance listed, in the solute-free solvent
Settings: 288.15 K; x2 = 0.8
property name: solubility (g/100 g solution)
// keep it numeric: no unit symbol after the value

response.value for Cc1ncc(C[n+]2csc(CCO)c2C)c(N)n1.O=[N+]([O-])[O-] + O + CC(C)O (field: solubility (g/100 g solution)) = 1.39

The measured solubility (g/100 g solution) associated with CCCCCOC(=O)Nc1nc(=O)n(C2OC(C)C(O)C2O)cc1F (stereo not drawn) + CCOC(C)=O + CCCCCCC reads 0.801

Recorded result, S=c1[nH]ncs1 + CCCO + O , solubility (g/100 g solution): 9.84

The compound S=c1[nH]ncs1 + CO + O showed solubility (g/100 g solution) equal to 11.9

Record summary for Cc1ncc(C[n+]2csc(CCO)c2C)c(N)n1.O=[N+]([O-])[O-] + O + CC(C)=O : reported solubility (g/100 g solution) = 2.14

Recorded solubility (g/100 g solution) (compound S=c1[nH]ncs1 + CCO + O ): 11.6

Please fill in: solubility (g/100 g solution) reported for S=c1[nH]ncs1 + CC(C)=O + O = 25.9

According to the records, this compound Cc1ncc(C[n+]2csc(CCO)c2C)c(N)n1.O=[N+]([O-])[O-] + O + CO displays solubility (g/100 g solution) of 1.68

* * *

Test: xn = mol fraction of the nth substance listed, in the solute-free solvent
Details: 288.15 K; x2 = 0.4
Kindly return MET if reported solubility (g/100 g solution) is no lower than 0.2; return NOT MET if it is lower.

Inquiry: Identify whether the reported solubility (g/100 g solution) of the following molecule is 0.2 or greater: S=c1[nH]ncs1 + CO + O
Reply text: MET

Inquiry: Please indicate if the recorded solubility (g/100 g solution) for Cc1ncc(C[n+]2csc(CCO)c2C)c(N)n1.O=[N+]([O-])[O-] + O + CO meets or exceeds 0.2.
Reply text: MET

Inquiry: Say whether Cc1ncc(C[n+]2csc(CCO)c2C)c(N)n1.O=[N+]([O-])[O-] + O + CC(C)O shows solubility (g/100 g solution) of 0.2 or more.
Reply text: NOT MET

Inquiry: Determine whether this molecule has solubility (g/100 g solution) no lower than 0.2: CCCCCOC(=O)Nc1nc(=O)n(C2OC(C)C(O)C2O)cc1F (centres undefined) + CCOC(C)=O + CCCCCCC
Reply text: NOT MET

Inquiry: In plain terms: is recorded solubility (g/100 g solution) at least 0.2 for S=c1[nH]ncs1 + CC(C)=O + O ?
Reply text: MET

Inquiry: Is it the case that Cc1ncc(C[n+]2csc(CCO)c2C)c(N)n1.O=[N+]([O-])[O-] + O + CC(C)=O has solubility (g/100 g solution) reaching or exceeding 0.2?
Reply text: MET

Inquiry: Hi, just wondering whether CCCCCOC(=O)Nc1nc(=O)n(C2OC(C)C(O)C2O)cc1F (centres undefined) + CCOC(C)=O + CCCCCC shows solubility (g/100 g solution) of 0.2 or higher.
Reply text: NOT MET

Inquiry: Decide: solubility (g/100 g solution) of S=c1[nH]ncs1 + CCCO + O >= 0.2?
Reply text: MET

Inquiry: Is reported solubility (g/100 g solution) greater than or equal to 0.2 here: S=c1[nH]ncs1 + CCO + O
Reply text: MET
